Molecular target: T1, human VPAC2 receptor (human, UniProt P41587 24-438)
T1 sequence (looked up): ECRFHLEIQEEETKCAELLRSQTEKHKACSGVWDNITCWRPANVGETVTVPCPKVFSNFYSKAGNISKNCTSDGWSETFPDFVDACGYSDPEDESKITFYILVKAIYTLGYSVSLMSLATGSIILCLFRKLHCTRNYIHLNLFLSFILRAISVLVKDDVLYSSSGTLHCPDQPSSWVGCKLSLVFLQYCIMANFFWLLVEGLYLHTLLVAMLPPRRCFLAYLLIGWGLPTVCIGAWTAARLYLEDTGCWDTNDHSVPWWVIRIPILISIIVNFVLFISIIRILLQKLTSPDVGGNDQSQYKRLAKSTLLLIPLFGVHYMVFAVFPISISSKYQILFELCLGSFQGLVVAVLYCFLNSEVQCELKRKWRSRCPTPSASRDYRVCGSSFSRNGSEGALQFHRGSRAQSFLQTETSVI
Experiment: cell-based or functional assay
Square brackets hold non-standard residues; d marks the D form. Ends that are not written are not given here. * marks the point of attachment. Orn = NCCC[C@H](N)C(=O)O; Hexanoyl = CCCCCC(=O)*; Aib = CC(C)(N)C(=O)O
In this section we review reported Human VPAC2 Receptor: Alpha Screen (EC50; nM), cAMP generation values for a set of binders.
Reply with the number, then its unit.

Use the examples below as a reference point.
>  <binder>
Hexanoyl-HSDAVFTDNYTFLR[Aib]QVAA[Aib]KYLQSI[Orn]N[Orn]GGPSSGAPPPS [VPAC2 receptor peptide agonist P369]

>  <result>
10.5 nM

$$$$
>  <binder>
HSDAVFTDQYTXLRXQLAAXXYLQSIXXGGPSSGAPPPS (N-terminal hexanoyl (C6); Orn at 12, 21, 27 and 28; Aib at 15 and 20) [VPAC2 receptor peptide agonist P395]

>  <result>
0.15 nM

$$$$
>  <binder>
HSDAVFTDNYTXLRXQVAAXKYSQSIXNXGGPSSGAPPPS (N-terminal hexanoyl (C6); Orn at 12, 27 and 29; Aib at 15 and 20) [VPAC2 receptor peptide agonist P384]

>  <result>
6.7 nM

$$$$

The reported Human VPAC2 Receptor: Alpha Screen (EC50; nM), cAMP generation of the binder Hexanoyl-HSDAVFTDQYTR[Aib]R[Aib]QVAA[Aib]KYLQSIK[Aib]KGGPSSGAPPPS [VPAC2 receptor peptide agonist P406] was 0.12 nM

The reported Human VPAC2 Receptor: Alpha Screen (EC50; nM), cAMP generation of the binder HSDAVFTDQYTXLRXQLAAXXYLQSIXXGGPSSGAPPPS (N-terminal hexanoyl (C6); Tyr(OMe) at 10; Orn at 12, 21, 27 and 28; Aib at 15 and 20) [VPAC2 receptor peptide agonist P394] was 0.11 nM

The reported Human VPAC2 Receptor: Alpha Screen (EC50; nM), cAMP generation of the binder HSDAVFTDNYTXLRXQVAAXKYLSSIXNXGGPSSGAPPPS (N-terminal hexanoyl (C6); Orn at 12, 27 and 29; Aib at 15 and 20) [VPAC2 receptor peptide agonist P383] was 0.12 nM
